src = PubChem BioAssay (Tox21)

assay.method.text: A CellTox Green Cytotoxicity Assay to monitor cytotoxicity in HepG2 cells - 32 hour (AID 1224883); also: nearly all actives have a fitted effect of over 50% in size
measurement.conditions: CellTox Green fluorescence; series mostly up to 76.8 µM
Results filed as inconclusive are left out. The source made the active and inactive calls. Calls follow the shape of the dose curve; as a rule, active = well fitted activation curve with a large enough effect in the repeat runs; inconclusive = weak or mixed curves; inactive = flat fitted curve, though single readings scatter.
Classes used: active, inactive

molecule | class
SCc1ccco1 | inactive
CN(C)CCc1c[nH]c2cccc(O)c12 | inactive
C[C@@H]1O[C@@H](O[C@H]2C[C@@H](O)[C@]3(CO)[C@H]4[C@H](O)C[C@]5(C)[C@@H](C6=CC(=O)OC6)CC[C@]5(O)[C@@H]4CC[C@]3(O)C2)[C@H](O)[C@H](O)[C@H]1O | inactive
C[C@@H]1CC[C@@]2(OC1)O[C@H]1[C@@H](O)[C@H]3[C@@H]4CC[C@H]5C[C@@H](O[C@@H]6O[C@H](CO)[C@H](O[C@@H]7O[C@H](CO)[C@@H](O)[C@H](O[C@@H]8OC[C@@H](O)[C@H](O)[C@H]8O)[C@H]7O[C@@H]7O[C@H](CO)[C@@H](O)[C@H](O[C@@H]8O[C@H](CO)[C@@H](O)[C@H](O)[C@H]8O)[C@H]7O)[C@H](O)[C@H]6O)[C@H](O)C[C@]5(C)[C@H]4CC[C@]3(C)[C@H]1[C@@H]2C | active
N#CNC#N | inactive
COc1ccc(OC)c(C=O)c1 | inactive
Cc1cc(C(F)(C(F)(F)F)C(F)(F)F)ccc1NC(=O)c1cccc(I)c1C(=O)NC(C)(C)CS(C)(=O)=O | inactive
O=c1ssc(Cl)c1Cl | active
CCOc1cc(C(C)(C)C)ccc1C1COC(c2c(F)cccc2F)=N1 (centres undefined) | inactive
ClCc1ccc(Cl)cc1Cl | inactive
c1ccc(OCC2CO2)cc1 (centres undefined) | inactive
O=C1c2ccccc2C(=O)C1C(=O)C(c1ccccc1)c1ccc(Cl)cc1 (centres undefined) | active
Cn1[nH]nnc1=S | inactive
Cc1cc(C)c(C2=C(OC(=O)CC(C)(C)C)C3(CCCC3)OC2=O)c(C)c1 | inactive
CCCCCCCCCBr | inactive
Cc1cc(SCc2sc(-c3ccc(C(F)(F)F)c(F)c3)nc2C)ccc1OCC(=O)O | inactive
CC(=O)c1ccc(-c2ccccc2)cc1 | inactive
c1ccc(Nc2ccc3ccccc3c2)cc1 | active
CC(C)CC(C)(c1ccc(O)cc1)c1ccc(O)cc1 | active
Cc1ccc(OP(=O)(Oc2ccccc2)Oc2ccccc2)cc1 | inactive
O=CC(Br)(Br)Br | active
Cc1ccc(C(=O)Cl)cc1 | inactive
CC(Cl)CN(C)C (centres undefined) | inactive
O=[N+]([O-])O.O=[N+]([O-])O.[Cd] | active

----------
assay.method.text: qHTS assay to identify small molecule antagonists of the retinoid acid receptor (RAR) signaling pathway - cell viability counter screen (AID 1159551); also: nearly all actives have a fitted effect of over 35% in size; also: potency is read from the fitted curve at half-maximal effect
measurement.conditions: C3RL4 cells viability, ATP luminescence (CellTiter-Glo), 6 h; series mostly up to 92.4 µM
Inconclusive results are not listed. The source made the active and inactive calls. Calls follow the shape of the dose curve; as a rule, active = well fitted cell-killing curve with a large enough effect in the repeat runs; inconclusive = weak or mixed curves, or effect the other way; inactive = flat fitted curve, though single readings scatter.

molecule | Potency
CC(C)C1CCC(Cc2ccc(Cl)cc2)C1(O)Cn1cncn1 (configuration not stated) | 60.5 µM (active)
ClC1=C(Cl)[C@]2(Cl)[C@@H]3[C@@H]4C[C@@H]([C@H]5O[C@@H]45)[C@@H]3[C@@]1(Cl)C2(Cl)Cl | 61.1 µM (active)
Cc1ccc(C(=O)Cl)cc1 | inactive
CC1(C)CN=C(NN=C(/C=C/c2ccc(C(F)(F)F)cc2)/C=C/c2ccc(C(F)(F)F)cc2)NC1 | 43.3 µM (active)
CC(C)(C)OO | inactive
CN(C)[C@@H]1C(=O)C(C(N)=O)=C(O)[C@@]2(O)C(=O)C3=C(O)c4c(O)ccc(Cl)c4[C@@](C)(O)[C@H]3C[C@@H]12 | inactive
Oc1ccc(C(c2ccc(O)cc2)(C(F)(F)F)C(F)(F)F)cc1 | inactive
